# tested on: D93, recombinant humanized IgG1 kappa antibody targeting denatured-collagen
# experiment description: competition ELISA on coated human dn-collagen IV
Square brackets hold non-standard residues; d marks the D form. Ends that are not written are not given here. Hyp = O=C(O)[C@@H]1C[C@@H](O)CN1
measured attribute: % inhibition of D93 binding to dn-collagen IV, peptide 1 µM (%)

binder	test value
GPPG (also: hydroxyproline marking, if any, lost) [synthetic peptide No. 22, GPPG (SEQ ID NO: 35)]	7
[Hyp]GAKGLPGP [synthetic peptide No. 13, … (SEQ ID NO: 17)]	11
L[Hyp]GP[Hyp]G [synthetic peptide No. 16, LPGPPG (SEQ ID NO: 24)]	6.5

I = GPXGPXGP (hydroxyproline at the P positions marked in Tables 13 and 14; marking lost in this text) [synthetic peptide No. 17, GPPGPPGP (SEQ ID NO: 31)]
II = GP[Hyp]GP[Hyp]GPY [synthetic peptide No. 3, … (SEQ ID NO: 30)]
III = GPPGPPG (also: hydroxyproline at marked P positions, if any, marking lost) [synthetic peptide No. 23, GPPGPPG (SEQ ID NO: 33)]
Sort low-to-high on % inhibition of D93 binding to dn-collagen IV, peptide 1 µM, please. Reply: labels, ordered per the request.
III, I, II
(III: 5%, I: 9.5%, II: 33%)
